Where these numbers come from: patent US8969312B2

# MEASURED_ON: human liver microsomal cytochrome P450 2E1 (CYP2E1) (Homo sapiens)
# ASSAY_NOTES: Human liver microsomal CYP2E1, chlorzoxazone 6-hydroxylation
# EXPERIMENTAL_PARAMETERS: Table 7
OBSERVED_PROPERTY: Minimum Effective Dose (mg)
One number for each entry, in mg.

Consider the reported Minimum Effective Dose for these compounds:
>>> measured_number("O.OC[C@H]1O[C@@H](O[C@H]2[C@H](O)[C@@H](O)C(O)O[C@@H]2CO)[C@H](O)[C@@H](O)[C@H]1O (stereo partly shown) [Lactose monohydrate]")
18
>>> measured_number("O=C1NS(=O)(=O)c2ccccc21")
10
>>> measured_number("COc1ccc(O)c(C(C)(C)C)c1 [Butylated hydroxyl anisol]")
9
>>> measured_number("C/C=C/C=C/C(=O)O")
6
>>> measured_number("CCCCCCCCCCCCOS(=O)(=O)[O-].[Na+] [Sodium lauryl sulfate]")
14
>>> measured_number("CC1CCC(C(C)C)C(O)C1 (stereo not shown)")
8
>>> measured_number("OC[C@H]1O[C@H](O[C@]2(CCl)O[C@H](CCl)[C@@H](O)[C@@H]2O)[C@H](O)[C@@H](O)[C@H]1Cl")
22
>>> measured_number("CC1=CC(=O)NS(=O)(=O)O1")
10

Provide reported Minimum Effective Dose for each item, in the same order as listed.
1. CCCOC(=O)c1ccc(O)cc1
2. O=C(O)CC(O)(CC(=O)O)C(=O)O
3. O=C([O-])c1ccccc1.[Na+] [Sodium benzoate]
4. OC[C@@H](O)[C@@H](O)[C@H](O)[C@H](O)CO
5. COC(=O)c1ccc(O)cc1

**A:**
[9, 10, 9, 10, 8]

----------
Would you kindly list inhibition at 30 min, 16.5 µM for each of these compounds?
# MEASURED_ON: CYP2E1 (Homo sapiens)
# Sequence (P05181 whole entry): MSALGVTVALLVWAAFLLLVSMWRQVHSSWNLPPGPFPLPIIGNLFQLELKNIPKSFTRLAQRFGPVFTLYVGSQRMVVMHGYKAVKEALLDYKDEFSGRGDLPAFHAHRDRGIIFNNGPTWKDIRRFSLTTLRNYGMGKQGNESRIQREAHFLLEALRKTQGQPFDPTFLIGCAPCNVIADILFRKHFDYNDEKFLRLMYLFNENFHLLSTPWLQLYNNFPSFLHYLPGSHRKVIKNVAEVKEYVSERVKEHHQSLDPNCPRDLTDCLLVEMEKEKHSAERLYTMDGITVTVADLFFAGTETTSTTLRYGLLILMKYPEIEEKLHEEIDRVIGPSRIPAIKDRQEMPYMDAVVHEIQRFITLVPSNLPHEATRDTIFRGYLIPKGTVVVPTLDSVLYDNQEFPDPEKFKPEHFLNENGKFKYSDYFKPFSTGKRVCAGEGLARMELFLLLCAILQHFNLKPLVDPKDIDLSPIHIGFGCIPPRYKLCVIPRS
# ASSAY_NOTES: Human liver microsomal CYP2E1, chlorzoxazone 6-hydroxylation
# EXPERIMENTAL_PARAMETERS: human, human liver microsomes, pH 7.4, probe Chlorzoxazone
Give bare numbers, in %.

>>> measured_number("O.OC[C@H]1O[C@@H](O[C@H]2[C@H](O)[C@@H](O)C(O)O[C@@H]2CO)[C@H](O)[C@@H](O)[C@H]1O (stereo partly drawn) [Lactose monohydrate]")
7.8
>>> measured_number("OC[C@@H](O)[C@@H](O)[C@H](O)[C@H](O)CO")
44.8
>>> measured_number("O=C(O)CC(O)(CC(=O)O)C(=O)O")
9.9
>>> measured_number("CCCOC(=O)c1ccc(O)cc1")
-4.1
>>> measured_number("OC[C@H]1O[C@H](O[C@]2(CCl)O[C@H](CCl)[C@@H](O)[C@@H]2O)[C@H](O)[C@@H](O)[C@H]1Cl")
37.1

Provide reported inhibition at 30 min, 16.5 µM for each item, in the same order as listed.
1. CCCCCCCCCCCCOS(=O)(=O)[O-].[Na+] [Sodium lauryl sulfate]
2. C/C=C/C=C/C(=O)O

**A:**
4.6
8.4

Provide reported inhibition at 30 min, 16.5 µM for each item, in the same order as listed.
1. O=C1NS(=O)(=O)c2ccccc21
2. COC(=O)c1ccc(O)cc1

**A:**
[29.4, 4.6]

----------
# MEASURED_ON: human liver microsomal cytochrome P450 2E1 (CYP2E1) (Homo sapiens, UniProt P05181)
# Sequence (P05181 whole entry): as above
# ASSAY_NOTES: Human liver microsomal CYP2E1, chlorzoxazone 6-hydroxylation
# EXPERIMENTAL_PARAMETERS: Table 6; minimum tested concentration (mg/L) × volume of human liver and intestine (3 L)
OBSERVED_PROPERTY: Minimum Effective Dose (mg)
Answers are plain numbers, in mg.

Consider the reported Minimum Effective Dose for these molecules:
>>> measured_number("COc1cc(C2Oc3cc([C@H]4Oc5cc(O)cc(O)c5C(=O)[C@@H]4O)ccc3OC2CO)ccc1O (some centres unmarked)")
26
>>> measured_number("O=C/C=C/c1ccccc1 [Trans-Cinnamaldehyde]")
7
>>> measured_number("O=c1cc(-c2ccccc2)oc2cc(O)c(O)c(O)c12")
15
>>> measured_number("COc1c(O)cc2oc(Oc3ccc(O)cc3)cc(=O)c2c1O")
17

Proceed to the following item.
// Oc1cc(O)c2c(c1)O[C@@H](c1ccc(O)c(O)c1)[C@@H](O)C2 [(+)-Epicatechin] : Minimum Effective Dose value = 16

----------
# MEASURED_ON: CYP2E1 (Homo sapiens)
# ASSAY_NOTES: Human liver microsomal CYP2E1, chlorzoxazone 6-hydroxylation;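 also: chlorzoxazone added as substrate, 6-hydroxychlorzoxazone formation quantified by LC/MS/MS after 30 min at 37 °C with NADP+ regenerating system, compared against solvent control without test sample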
# EXPERIMENTAL_PARAMETERS: human, human liver microsomes, pH 7.4, probe Chlorzoxazone
Would you kindly list inhibition at 30 min, 0.08 % (w/v) for each of these molecules?
Numbers only, in %.

Consider the reported inhibition at 30 min, 0.08 % (w/v) for these molecules:
>>> measured_number("CC1=CC(=O)NS(=O)(=O)O1")
7.1
>>> measured_number("OC[C@@H](O)[C@@H](O)[C@H](O)[C@@H](O)CO")
5.6
>>> measured_number("CC1CCC(C(C)C)C(O)C1 (stereo not shown)")
20.8

Proceed to the following item.
Record OCc1ccccc1 has CYP2E1 (Homo sapiens) inhibition at 30 min, 0.08 % (w/v) equal to 6.7

----------
# Tested on: amidase
# ASSAY_NOTES: Mouse liver microsomal amidase, isoniazid to isonicotinic acid
# Format: biochemical
# EXPERIMENTAL_PARAMETERS: 100 uM
Would you kindly list Amidase inhibition for each of these molecules?
One number for each entry, in %.

>>> measured_number("Oc1cc(O)c2c(c1)O[C@H](c1ccc(O)c(O)c1)[C@H](O)C2 [(−)-Epicatechin]")
3.6

Provide reported Amidase inhibition for each item, in the same order as listed.
1. C=CC(=C)CCC=C(C)C
2. O=C(O)[C@H]1O[C@@H](Oc2cc3oc(-c4ccccc4)cc(=O)c3c(O)c2O)[C@H](O)[C@@H](O)[C@@H]1O
3. O=c1cc(-c2ccc(O)c(O)c2)oc2cc(O[C@@H]3O[C@H](CO)[C@@H](O)[C@H](O)[C@H]3O)cc(O)c12 [Luteolin-7-Glucoside]
4. O=c1c(-c2ccc(O)cc2)coc2cc(O)ccc12
5. O=c1cc(-c2ccccc2)oc2cc(O)c(O)c(O)c12
6. O=C1C[C@@H](c2ccc(O)c(O)c2)Oc2cc(O)cc(O)c21
7. CC1(C)[C@@H](O[C@H]2O[C@H](C(=O)O)[C@@H](O)[C@H](O)[C@H]2O[C@@H]2O[C@H](C(=O)O)[C@@H](O)[C@H](O)[C@H]2O)CC[C@]2(C)[C@H]3C(=O)C=C4[C@@H]5C[C@@](C)(C(=O)O)CC[C@]5(C)CC[C@@]4(C)[C@]3(C)CC[C@@H]12
8. COc1ccc(-c2cc(=O)c3c(O)cc(O)c(-c4cc(-c5cc(=O)c6c(O)cc(OC)cc6o5)ccc4OC)c3o2)cc1

**A:**
5.8
34.8
12.9
16.2
15.6
22.3
24.4
20.6

Provide reported Amidase inhibition for each item, in the same order as listed.
1. O=C(O)c1ccc(O)c(O)c1
2. O=C(O)/C=C/c1ccccc1 [trans-Cinnamic acid]

**A:**
1: 15.7; 2: 12.6

Provide reported Amidase inhibition for each item, in the same order as listed.
1. O=c1ccc2ccc(O)cc2o1
2. O=C1c2c(O)cc(O)cc2O[C@H](c2ccc(O)c(O)c2)[C@H]1O [(+)-Taxifolin]
3. O=c1cc(-c2ccc(O)c(O)c2)oc2cc(O)cc(O)c12
4. COc1cc(-c2cc(=O)c3c(O)cc(O)cc3o2)ccc1O

**A:**
[33.5, 36.4, 47.5, 23.2]

----------
Would you kindly list Amidase inhibition for each of these compounds?
# System: amidase
# ASSAY_NOTES: Mouse liver microsomal amidase, isoniazid to isonicotinic acid
# Type: biochemical
# EXPERIMENTAL_PARAMETERS: 100 uM
Give bare numbers, in %.

Consider the reported Amidase inhibition for these compounds:
>>> measured_number("C[C@@H]1O[C@@H](OC[C@H]2O[C@@H](Oc3cc(O)c4c(c3)O[C@H](c3ccc(O)c(O)c3)CC4=O)[C@H](O)[C@@H](O)[C@@H]2O)[C@H](O)[C@H](O)[C@H]1O")
32.8
>>> measured_number("COc1c(O)cc2oc(Oc3ccc(O)cc3)cc(=O)c2c1O")
45.7
>>> measured_number("O=c1c(O)c(-c2cc(O)c(O)c(O)c2)oc2cc(O)cc(O)c12")
56.4

Provide reported Amidase inhibition for each item, in the same order as listed.
1. O=c1c(O)c(-c2ccccc2)oc2cc(O)cc(O)c12
2. O=c1c(O)c(-c2ccc(O)c(O)c2)oc2cc(O)ccc12
3. O=C(CCc1ccc(O)cc1)c1c(O)cc(O)cc1O
4. COc1ccc(-c2cc(=O)c3c(O)c(OC)c(OC)cc3o2)cc1O
5. O=c1cc(-c2ccccc2)oc2c1ccc1ccccc12

**A:**
[61.5, 56.4, 29.9, 12.0, 36.9]

Provide reported Amidase inhibition for each item, in the same order as listed.
1. CC1(C)CC[C@]2(C(=O)O)CC[C@]3(C)C(=CC[C@@H]4[C@@]5(C)CC[C@H](O)C(C)(C)[C@@H]5CC[C@]43C)[C@@H]2C1
2. O=C(/C=C/c1ccc(O)cc1)c1ccc(O)cc1O
3. O=c1c(O)c(-c2ccc(O)c(O)c2)oc2cc(O)cc(O)c12
4. COc1ccc(-c2oc3cc(O)cc(O)c3c(=O)c2O)cc1O

**A:**
24.5
57.2
75.5
28.9

Provide reported Amidase inhibition for each item, in the same order as listed.
1. C=C(C)C1CC=C(C)CC1 (single isomer, unassigned; (+)) [(+)-Limonene]
2. O=c1cc(-c2ccc(O)cc2)oc2cc(O)c([C@@H]3O[C@H](CO)[C@@H](O)[C@H](O)[C@H]3O)c(O)c12
3. COc1ccc([C@@H]2CC(=O)c3c(O)cc(O[C@@H]4O[C@H](CO)[C@@H](O)[C@H](O)[C@H]4O[C@@H]4O[C@@H](C)[C@H](O)[C@@H](O)[C@H]4O)cc3O2)cc1
4. COc1cc(/C=C/C(=O)CC(=O)/C=C/c2ccc(O)c(OC)c2)ccc1O
5. O=C(O)c1cc(O)c(O)c(O)c1
6. COc1ccc([C@@H]2CC(=O)c3c(O)cc(O)cc3O2)cc1O

**A:**
6.2
1.1
17.3
9.7
−20.2
19.0

Provide reported Amidase inhibition for each item, in the same order as listed.
1. COc1ccc(-c2cc(=O)c3c(OC)c(OC)c(OC)cc3o2)cc1OC
2. COc1ccc(-c2cc(=O)c3c(O)cc(O[C@@H]4O[C@H](CO[C@@H]5O[C@@H](C)[C@H](O)[C@@H](O)[C@H]5O)[C@@H](O)[C@H](O)[C@H]4O)cc3o2)cc1O
3. COc1cc(-c2oc3cc(O)cc(O)c3c(=O)c2O)ccc1O
4. O=c1c(-c2ccc(O)cc2)coc2cc(O)cc(O)c12

**A:**
1. 9.7
2. 1.6
3. 31.3
4. 5.8

Provide reported Amidase inhibition for each item, in the same order as listed.
1. O=c1c(-c2ccc(O)cc2)coc2cc(O[C@@H]3O[C@H](CO)[C@@H](O)[C@H](O)[C@H]3O)ccc12
2. O=c1c(-c2ccc(O)cc2)coc2c([C@@H]3O[C@H](CO)[C@@H](O)[C@H](O)[C@H]3O)c(O)ccc12
3. CCCCCCCCCCCCO
4. CC12CCC(CC1)C(C)(C)O2

**A:**
7.4
17.9
4.1
22.9

Provide reported Amidase inhibition for each item, in the same order as listed.
1. O=C1C[C@@H](c2ccc(O[C@@H]3O[C@H](CO)[C@@H](O)[C@H](O)[C@H]3O)cc2)Oc2cc(O)ccc21
2. Oc1cc(O)c2c(c1)O[C@H](c1cc(O)c(O)c(O)c1)[C@H](O)C2 [(−)-Epigallocatechin]
3. CC(C)[C@@H](C)/C=C/[C@@H](C)[C@H]1CC[C@H]2C3=CC=C4C[C@@H](O)CC[C@]4(C)[C@H]3CC[C@]12C
4. Oc1cc(O)c2c(c1)O[C@H](c1ccc(O)c(O)c1)[C@@H](O)C2 [(+)-Catechin]
5. CCCCC[C@H](O)CC(=O)CCc1ccc(O)c(OC)c1

**A:**
[12.5, 2.2, 0.4, 1.3, 22.6]

Provide reported Amidase inhibition for each item, in the same order as listed.
1. O=c1c(O)c(-c2ccc(O)cc2O)oc2cc(O)cc(O)c12
2. O=c1cc(-c2ccc(O)c(O)c2)oc2cc(O)c([C@@H]3O[C@H](CO)[C@@H](O)[C@H](O)[C@H]3O)c(O)c12

**A:**
1: 59.8; 2: 18.0
